system.tested: T1, Mouse Id2: Histidine (mouse, UniProt P41136 1-134, limits assumed)
T1 construct: Fusion protein made in E. coli from vector pGW07; also called m-Id2: His; not shown: His tag
T1 sequence (looked up): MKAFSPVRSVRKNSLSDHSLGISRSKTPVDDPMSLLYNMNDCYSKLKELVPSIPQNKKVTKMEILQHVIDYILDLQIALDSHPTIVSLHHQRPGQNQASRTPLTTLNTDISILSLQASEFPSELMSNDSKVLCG
test.name: ELISA, Ab 0.250 µg/ml
measured.endpoint: A450 (A450)
Quick reminder: number only, in A450, skip the unit.

What value of A450 has been recorded for this entry: rabbit monoclonal anti-human Id3, clone #BCH-4/#3-3 (antibody, V domains shown, Rabbit IgG from a rabbit hybridoma; also called h Id3 MoAb 3-3) VH: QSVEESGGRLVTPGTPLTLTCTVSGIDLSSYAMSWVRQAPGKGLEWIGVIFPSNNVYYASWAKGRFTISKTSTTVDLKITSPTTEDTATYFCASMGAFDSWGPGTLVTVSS VL: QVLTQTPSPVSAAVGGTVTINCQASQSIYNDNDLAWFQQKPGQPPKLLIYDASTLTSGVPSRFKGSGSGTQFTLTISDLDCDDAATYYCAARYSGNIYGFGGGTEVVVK
0.051

Entry source: patent US20070178531A1
